Please provide measured solubility for the entries that follow.
Assay: Solubility of the compound in 0.1 M sodium phosphate buffer at pH 7.4
Format: physicochemical
Details: buffer
Only the number, expressed in µM, is required.

Q: I have this compound here, O=C(NCCCCNC(=O)NCc1ccco1)NCc1ccco1 , and I need its recorded solubility.
Ans: 225

Q: And what about the compound CC1(C)C2CCC1(C)C(NC(=O)NCCCCNC(=O)NC1CC3CCC1(C)C3(C)C)C2 (stereo unspecified) ?
Ans: 10

Q: And what about the compound O=C(NCCCCCCCCNC(=O)NCc1ccco1)NCc1ccco1 ?
Ans: 50

Q: And what about the compound O=C(NCc1ccco1)Nc1ccccc1F ?
Ans: 425

Q: And what about the compound O=C(Nc1ccccc1F)NC1CC2CCC1C2 (stereo unspecified) ?
Ans: 325

Q: And what about the compound CC1(C)C2CCC1(C)C(NC(=O)NCCCCCCCCNC(=O)NC1CC3CCC1(C)C3(C)C)C2 (stereo unspecified) ?
Ans: 10

Q: And what about the compound CC1(C)[C@@H]2CC[C@@]1(C)C(NC(=O)Nc1ccccc1F)C2 (mixture of isomers) ?
Ans: 225

Q: And what about the compound CCCCCCCCNC(=O)NC1CC2CCC1(C)C2(C)C (stereo unspecified) ?
Ans: 125

Q: And what about the compound CC12CCC(NC(=O)N[C@H]3CC[C@H](Oc4ccc(C(=O)O)cc4)CC3)(OC1=O)C2(C)C (stereo partly specified) ?
Ans: 300

Q: And what about the compound O=C(NCCCCCCNC(=O)NCc1ccco1)NCc1ccco1 ?
Ans: 100

Q: And what about the compound O=C(NCCCCNC(=O)NC1CC2CCC1C2)NC1CC2CCC1C2 (stereo unspecified) ?
Ans: 75

Q: And what about the compound CC1(C)C2CCC1(C)C(NC(=O)Nc1ccccc1F)C2 (stereo unspecified) ?
Ans: 225

Q: And what about the compound O=C(NCc1ccco1)NCC12CC3CC(CC(C3)C1)C2 ?
Ans: 300

Q: And what about the compound O=C(NC1CC2C=CC1C2)N[C@H]1CC[C@H](Oc2ccc(C(=O)O)cc2)CC1 (stereo partly specified) ?
Ans: 350

These entries and their values trace back to ChEMBL document CHEMBL4665720.
